Values compiled from PubChem BioAssay AID1159580.

# Protocol: chemical genetic growth profiling, strain panel (AID 1159580);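 also: tested at 20 µM; growth read once vehicle control cultures reached saturation at 30 °C; 1 = growth at the plate median or of vehicle wells; lower values mean less growth of the strain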
# Stated conditions: S. cerevisiae deletion strains, growth OD, locus YJR043C, strain POL32, stronger effect = lower value
The campaign covered roughly 5,500 compounds. About 2,000 (36%) were called active. About 18% were inconclusive and are not listed. Some of the results follow.
Quantity: normalized growth

[
  {
    "Cpd smiles": "N/C(=N/OS(=O)(=O)c1ccc(Cl)cc1)c1ccc(C(F)(F)F)cc1",
    "normalized growth": "0.97 (inactive)"
  },
  {
    "Cpd smiles": "CSC(=NCc1cccnc1)NC#N",
    "normalized growth": "0.986 (inactive)"
  },
  {
    "Cpd smiles": "ClC(Cl)=C(c1ccc(Cl)cc1)c1ccc(Cl)cc1",
    "normalized growth": "0.966 (inactive)"
  }
]

Dear colleague, I am looking for the recorded normalized growth of the following compound: `CC(=O)N(O)CCCCCNC(=O)CCC(=O)N(O)CCCCCNC(=O)CCC(=O)N(O)CCCCCN` 1.02 (inactive)

###

Entries and their measured normalized growth follow.
# Protocol: chemical genetic growth profiling, strain panel (AID 1159580);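 also: tested at 20 µM; growth read once vehicle control cultures reached saturation at 30 °C; 1 = growth at the plate median or of vehicle wells; lower values mean less growth of the strain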
# Stated conditions: S. cerevisiae deletion strains, growth OD, locus YJL095W, strain BCK1, stronger effect = lower value
Screen size: about 5,500 compounds; about 2,000 (36%) were called active. Inconclusive results (about 18%) are left out. Some of the results follow.
Provide a numeric answer; units are not to be included.

Below: 5 compounds and their reported normalized growth.
[
  {
    "Compound": "O=C(O)c1cn(-c2ccc(F)cc2)c2cc(N3CCNCC3)c(F)cc2c1=O",
    "normalized growth": 0.976
  },
  {
    "Compound": "Cc1cc(=O)c2c(o1)-c1c(cc(O)c(O)c1C(=O)O)OC2",
    "normalized growth": 0.998
  },
  {
    "Compound": "C#CCOS(=O)OC1CCCCC1Oc1ccc(C(C)(C)C)cc1 (stereo unspecified)",
    "normalized growth": 1.02
  },
  {
    "Compound": "COc1ccc2oc(-c3ccccc3OC)cc(=O)c2c1",
    "normalized growth": 0.889
  },
  {
    "Compound": "COc1cc(-c2coc3cc(O)c(OC)c(O)c3c2=O)cc(O)c1OC",
    "normalized growth": 1.02
  }
]

Dear colleague, I am looking for the recorded normalized growth of the following compound: `CCN1CCN(c2cc3c(cc2F)c(=O)c(C(=O)O)cn3C2CC2)CC1` 0.995

Dear colleague, I am looking for the recorded normalized growth of the following compound: `CC(=O)Oc1c(-c2ccccc2)oc2c(CC=C(C)C)c3c(c(OC(C)=O)c2c1=O)C=CC(C)(C)O3` 0.926

Dear colleague, I am looking for the recorded normalized growth of the following compound: `CCN(CC)CCNC(=O)c1ccc(NC(C)=O)cc1` 1.02

Dear colleague, I am looking for the recorded normalized growth of the following compound: `Cc1cc(=O)c2c(O)c3c(cc2o1)OC(C)(C)CC3` 0.972

Dear colleague, I am looking for the recorded normalized growth of the following compound: CCCCOc1cc(CC2CNC(=O)N2)ccc1OC (stereo unspecified) 0.978

Dear colleague, I am looking for the recorded normalized growth of the following compound: `O=C1CN2Cc3c(ccc(Cl)c3Cl)N=C2N1` 0.973
